System: COLO 741
Method: CellTiter-Glo proliferation assay 72 hrs, with or without FGF2
Format: cell-based
Conditions: Homo sapiens; COLO 741, with 100 ng/ml FGF2; read-out: LGX818 + FGF2 IC50
Description: All cell lines were purchased from ATTC (SK-MEL-5, SK-MEL-24, UACC-62, COLO 741, COLO-800, WM-266-4, Colo205, LS411N, SW 1417), ECACC (MDST8), DSMZ (CL-34) and NCI (LOX IMVI). […] In all cases cells were thawed from frozen stocks, expanded through passage using 1:3 dilutions, counted and assessed for viability using a ViCell counter (Beckman-Coulter), prior to plating in 96-well or 6-well plates. […] Mutant (mut) and wildtype (wt) status was determined from published data. […]
Experimental readout: pIC50
Worth noting: pIC50 values are minus log10 of concentrations stated in mol/L.

Q. Please give measured pIC50 of the following entry: COC(=O)N[C@@H](C)CNc1nccc(-c2cn(C(C)C)nc2-c2cc(Cl)cc(NS(C)(=O)=O)c2F)n1 [Compound of Formula (I)]
A. 5.58

====

Test system: COLO-800
Method: CellTiter-Glo proliferation assay 72 hrs, with or without FGF2
Assay type: cell-based
Conditions: Homo sapiens; COLO-800, without FGF2; read-out: LGX818 IC50
Experimental readout: IC50

Q. Please supply the value of reported IC50 for the item COC(=O)N[C@@H](C)CNc1nccc(-c2cn(C(C)C)nc2-c2cc(Cl)cc(NS(C)(=O)=O)c2F)n1
A. 9 nM

====

Test system: A-375 cells
Method: Microscopy imaging assay (viable nuclei count), 72 h
Assay type: cell-based
Conditions: Homo sapiens, A-375 parent, single agent
Experimental readout: pIC50
Please note pIC50 is a logarithmic value: minus log10 of concentration in mol/L. Answer with that number alone.

Q. Complete the entry with pIC50 for COC(=O)N[C@@H](C)CNc1nccc(-c2cn(C(C)C)nc2-c2cc(Cl)cc(NS(C)(=O)=O)c2F)n1 [Compound of Formula (I)]
A. 8.40

Q. Determine from records and report pIC50 for Cn1cnc2c(F)c(Nc3ccc(Br)cc3F)c(C(=O)NOCCO)cc21 [Compound B]
A. 7.24

====

Tested on: COLO 205
Method: CellTiter-Glo proliferation assay 72 hrs, with or without FGF2
Assay type: cell-based
Conditions: Homo sapiens; Colo 205, without FGF2; read-out: LGX818 IC50
Experimental readout: IC50 (nM)
Report only the number, with the unit nM understood.

Q. Given the compound COC(=O)N[C@@H](C)CNc1nccc(-c2cn(C(C)C)nc2-c2cc(Cl)cc(NS(C)(=O)=O)c2F)n1 [Compound of Formula (I)] , write its reported IC50.
A. 4

====

System: WM-266-4
Method: CellTiter-Glo proliferation assay 72 hrs, with or without FGF2
Format: cell-based
Conditions: Homo sapiens; WM-266-4 (V600D), without FGF2; read-out: LGX818 IC50
Experimental readout: pIC50
Field pIC50 (float): negative decimal logarithm of the concentration in molar.

Q. Assign pIC50 to the following record: COC(=O)N[C@@H](C)CNc1nccc(-c2cn(C(C)C)nc2-c2cc(Cl)cc(NS(C)(=O)=O)c2F)n1
A. 8.52

====

Test system: WM-266-4 cells expressing truncated p61-BRAFV600E
Method: Microscopy imaging assay (viable nuclei count), 72 h
Type: cell-based
Conditions: Homo sapiens, WM-266-4 p61 BRafV600E, single agent
Experimental readout: pIC50
Reminder that pIC50 means the negative base-10 logarithm of the concentration expressed in mol/L.

Q. Return value of pIC50 for input COC(=O)N[C@@H](C)CNc1nccc(-c2cn(C(C)C)nc2-c2cc(Cl)cc(NS(C)(=O)=O)c2F)n1 , no commentary.
A. 6.03

====

System: WM-266-4
Method: CellTiter-Glo proliferation assay 72 hrs, with or without FGF2
Type: cell-based
Conditions: Homo sapiens; WM-266-4 (V600D), with 100 ng/ml FGF2; read-out: LGX818 + FGF2 IC50
Experimental readout: IC50 (nM)
Give the value, in units of nM, as a plain number.

Q. Recall the reported IC50 of COC(=O)N[C@@H](C)CNc1nccc(-c2cn(C(C)C)nc2-c2cc(Cl)cc(NS(C)(=O)=O)c2F)n1 [Compound of Formula (I)] when tested on WM-266-4.
A. 4

====

System: WM-266-4 cells expressing mutant NRASQ61K
Method: Microscopy imaging assay (viable nuclei count), 72 h
Assay type: cell-based
Conditions: Homo sapiens, WM-266-4 NRASQ61K, single agent
Experimental readout: pIC50
The meaning of pIC50 here: minus log10 of the concentration in molar units.

Q. In one line, give reported pIC50 of the entry COC(=O)N[C@@H](C)CNc1nccc(-c2cn(C(C)C)nc2-c2cc(Cl)cc(NS(C)(=O)=O)c2F)n1 .
A. 6.06
